Test: Selectivity index, ratio of CC50 for African green monkey Vero cells to EC50 for Ebola virus 1976 Mayinga infected in African green monkey Vero cells
Format: toxicity
Settings: read-out: Ratio CC50/EC50
Outcome Measure: selectivity ratio

• COC(=O)c1ccc(NC(=O)c2ccc(CN3CCCCC3)cc2)cc1 = 35

====

Test system: Zaire ebolavirus
Assay: Antiviral activity against Ebola virus 1976 Mayinga infected in African green monkey Vero cells
Type: functional, organism-based
Outcome Measure: EC50

* COC(=O)c1ccc(NC(=O)c2ccc(CN3CCCCC3)cc2)cc1 | < 10 µM

====

Assay: Metabolic stability in Fischer F344 rat liver microsomes assessed as parent compound remaining after 60 mins in presence of NADPH by HPLC analysis
Type: ADME, Microsome
Conditions: read-out: Stability
Binary label based on remaining at 1 h with cut-off 30%: below gives label 1, not below gives label 0.

* O=C(Nc1ccc(C23CC4CC(CC(C4)C2)C3)cc1)c1ccc(CN2CCCCC2)cc1 | label 0
* CC(c1ccc(C(=O)Nc2ccc(C3CCCCC3)cc2)cc1)N1CCCCC1 (stereo unspecified) | label 1
* CC(c1ccc(C(=O)N2CCc3cc(C(C)(C)C)ccc32)cc1)N1CCCCC1 (stereo unspecified) | label 1
* CC(C)(C)c1ccc(NC(=O)c2ccc(CN3CCCCC3)cc2)c(C(C)(C)C)c1 | label 0
* O=C(Nc1ccc(SC(F)(F)F)c(Cl)c1)c1ccc(CN2CCCCC2)cc1 | label 0
* CC1CCN(c2ccc(NC(=O)c3ccc(CN4CCOCC4)cc3)cc2C(F)(F)F)CC1 | label 0
* O=C(Nc1ccc(C23CC4CC(CC(C4)C2)C3)cc1)c1ccc(CN2CCOCC2)cc1 | label 0
* O=C(c1ccc(CN2CCCCC2)cc1)N1CCc2ccc(C(F)(F)F)cc21 | label 1
* COC(=O)c1ccc(NC(=O)c2ccc(CN3CCCCC3)cc2)cc1 | label 1
* CC(c1ccc(C(=O)N2CC(C(C)(C)C)c3ccccc32)cc1)N1CCCCC1 (stereo unspecified) | label 1
* O=C(Nc1ccc(C2CCCCC2)cc1)c1ccc(CN2CCCCC2)c(F)c1 | label 1
